The measured values listed here are drawn from ChEMBL document CHEMBL1151207.

system: Botrytis cinerea; assay: Antifungal activity against Botrytis cinerea 98G1 spore germination after 24 hrs at 20 degC in darkness by microtiter plate method; assay type: functional; settings: 98G1, 24 h
Answer each item with its documented MIC.

Task item: So what's the measured MIC for this one? CC(C)[C@@H]1NC(=O)[C@@H](C(C)C)OC(=O)[C@H](C(C)C)N(C)C(=O)[C@@H](C(C)C)OC(=O)[C@H](C(C)C)N(C)C(=O)[C@@H](C(C)C)OC1=O
Reply: > 100 µg/mL

Task item: Quick one: MIC for CC(C)[C@H]1C(=O)O[C@H](C(C)C)C(=O)N(C)[C@@H](C(C)C)C(=O)O[C@H](C(C)C)C(=O)N(C)[C@@H](C(C)C)C(=O)O[C@H](C(C)C)C(=O)N1C ?
Reply: > 100 µg/mL

Task item: Need MIC of CC(C)[C@H]1C(=O)O[C@H](C(C)C)C(=O)N(C)[C@@H](C)C(=O)O[C@H](C(C)C)C(=O)N(C)[C@@H](C(C)C)C(=O)O[C@H](C(C)C)C(=O)N1C , thanks.
Reply: > 100 µg/mL

Task item: What does the record list as MIC for CC[C@H](C)[C@H]1C(=O)O[C@H](C(C)C)C(=O)N(C)[C@@H](C(C)C)C(=O)O[C@H](C(C)C)C(=O)N(C)[C@@H](C(C)C)C(=O)O[C@H](C(C)C)C(=O)N1C ?
Reply: 75 µg/mL
